Listing of entries alongside the reported EC50 at 48 h.
# assay notes: Cytotoxicity against human HepG2 cells assessed as reduction in cell viability incubated for 48 hrs by MTS assay
# Format: toxicity, cell-based

compound: c1ccc(CCN2CCC3(CCc4ccc5ccccc5c4O3)CC2)cc1
EC50 at 48 h: > 20 µM
//
compound: OC1CC2(CCN(CCc3ccccc3)CC2)Oc2c1ccc1ccccc21 (centres undefined)
EC50 at 48 h: > 20 µM
//
compound: OC1C[C@@]2(CCCN(CCc3ccc(F)c(F)c3)C2)Oc2c1ccc1ccccc21 (some centres undefined)
EC50 at 48 h: > 20 µM

Continue with the next compound.
compound `O=C(CN1CCC2(CCc3ccc4ccccc4c3O2)CC1)c1ccc(F)c(F)c1` , EC50 at 48 h observed: > 20 µM
